Biological target: T1, recombinant human CD63 extracellular loop 2 expressed with a C-terminal Myc-Myc-hexahistidine (human)
T1 construct: also called hCD63 EC loop 2-MMH; human CD63 EC loop 2-MMH
T1 sequence (chain, as listed by the source limits assumed): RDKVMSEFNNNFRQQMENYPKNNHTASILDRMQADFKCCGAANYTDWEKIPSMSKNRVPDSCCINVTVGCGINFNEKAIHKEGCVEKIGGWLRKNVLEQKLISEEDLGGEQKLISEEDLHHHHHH
Experiment: SPR Biacore, mAb captured, 37C
Experimental: Equilibrium dissociation constants (KD) for different CD63 (EC2) loop reagents binding to purified anti-CD63 monoclonal antibodies were determined using a real-time surface plasmon resonance based Biacore T200 biosensor or Biacore 2000 biosensor. […] The association rate (Kₐ) and dissociation rate (kd) were determined by fitting the real-time binding sensorgrams to a 1:1 binding model with mass transport limitation using Scrubber 2.0c curve-fitting software. […]
property measured: koff (s⁻¹)
Please give a number only; it is taken to be in s⁻¹.

| binder | property measured | unit label | numeric result |
| --- | --- | --- | --- |
| H2M12395N (antibody, V domains shown, also called H2aM12395N) VH: QVQLQESGPRLVKPSETLSLTCIVSGGSISNFYWNWIRQSPGKGLEWIGYFFYTGTIDYNPSLKSRVTISLDTSKNQFSLNLRLLTAADAAVYYCARMGLGANAFDIWGHGTMVTVSS VL: EIVLTQSPGTLSLSPGERATLSCRASQHVSSNYLAWYQQKPGQAPRLLIYGGSSRATGIPDRFSGSGSGTDFTLTISRLEPADFAVFYCQQYGNSPWTFGQGTKVEMK | koff | s⁻¹ | 0.00932 |

Record H1M12451N (antibody, V domains shown) VH: QVQLQESGPGLMKPSETLSLTCTVSGGSFSSYYWNWIRQSPGKGLEWIGYIRYSGDTNYKPSLKSRFTISIDTSKNLFSLRLKSVTAADTAVYYCARMGLGSDAFDIWGQGTMVTVSS VL: EIVLTQSPGTLSLSPGERATLSCRASQSVNNNYLAWYQQKPGQAPRLLIYGVFNRATNIPDRFSGSGSGTDFTLTISRLEPEDFAVYYCQQYGSSPWTFGQGTKVEIK , field koff: 0.0019

Record H2M12452N (antibody, V domains shown, also called H2aM12452N) VH: QVQLQEAGPGLVKPSETLSLTCIVSGGSISGFYWNWIRQPPGKGLEWIGYFLYSGTIDYNPSLKSRVTISVDTSKNQFFLKLSFVTAADTAVYYCVRMGLGANAFDIWGRGTMVTVSS VL: EIVLTQSPGTLSLSPGERATLSCRASQTVSRSFLAWYQQKPGQAPRLLIYGPSSRATGIPDRFSGSGSGTDFTLTISRLEPEDFAVYYCQQYGNSPWTFGQGTKVEIK , field koff: 0.00269
